Where these numbers come from: paper PMC6427922

# measured target: hM1 (Homo sapiens, UniProt P11229)
# Sequence (P11229 1-460): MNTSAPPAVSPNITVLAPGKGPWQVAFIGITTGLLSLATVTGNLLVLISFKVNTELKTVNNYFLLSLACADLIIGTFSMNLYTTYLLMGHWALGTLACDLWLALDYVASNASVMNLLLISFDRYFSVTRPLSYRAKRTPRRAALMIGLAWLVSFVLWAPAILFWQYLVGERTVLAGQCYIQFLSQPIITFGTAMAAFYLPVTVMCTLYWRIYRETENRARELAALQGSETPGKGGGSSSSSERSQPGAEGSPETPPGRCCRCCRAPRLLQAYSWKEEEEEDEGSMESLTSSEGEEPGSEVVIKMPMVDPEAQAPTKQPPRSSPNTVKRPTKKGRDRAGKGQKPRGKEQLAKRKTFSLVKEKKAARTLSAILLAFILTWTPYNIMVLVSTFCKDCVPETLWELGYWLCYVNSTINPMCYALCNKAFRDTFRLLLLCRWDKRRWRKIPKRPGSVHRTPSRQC
# Assay type: cell-based
# measurement parameters: hM1-CHO
measured endpoint: M1 PAM activity in words (relative to 14 or comparators)

compound="O=C(Nc1ncccc1O)C1CN(Cc2ccc(-n3cccn3)cc2)c2ccccc2O1 (centres unmarked) [25j]" endpoint_result="equipotent to 14"
compound="O=C(N[C@H]1CCCC[C@@H]1O)C1CN(Cc2ccc(-n3cccn3)nc2)c2ccccc2O1 (some centres unmarked)" endpoint_result="equipotent to 14"
